tested on: NCI-H2347; assay: relative viability (nuclei count vs DMSO), 5 days (fraction); higher = more cells survive; conditions: first compound 0.8 µM
Measured metric: relative viability

The reported value for Cc1cnc(-c2cnc(NCCNc3ccc(C#N)cn3)nc2-c2ccc(Cl)cc2Cl)[nH]1 + Nc1nc2[nH]cc(CCc3ccc(C(=O)N[C@@H](CCC(=O)O)C(=O)O)cc3)c2c(=O)[nH]1 [Pemetrexed] (partner 0.2 µM) in terms of relative viability is 0.398

The reported value for O=c1[nH]c2ccccc2n1C1CCN(CCCC(c2ccc(F)cc2)c2ccc(F)cc2)CC1 [Pimozide] + COc1cccc2cc(-c3nc([C@H]4CC[C@H](C(=O)O)CC4)n4ncnc(N)c34)[nH]c12 [OSI-027] (partner 0.5 µM) in terms of relative viability is 0.413

The reported value for O=c1[nH]c2ccccc2n1C1CCN(CCCC(c2ccc(F)cc2)c2ccc(F)cc2)CC1 [Pimozide] + NC(=O)Nc1cc(-c2cccc(F)c2)sc1C(=O)N[C@H]1CCCNC1 [AZD7762] (partner 0.2 µM) in terms of relative viability is 0.723

====

system: EBC-1; experiment: relative viability (nuclei count vs DMSO), 5 days (fraction); higher = more cells survive; conditions: first compound 0.01581 µM
Response field label takes 1 when relative viability is strictly below 0.3 and 0 in all other cases.

IN: Identify whether the compound Nc1ccn([C@@H]2O[C@H](CO)[C@@H](O)[C@@H]2O)c(=O)n1 [Cytarabine] + CS(=O)(=O)N1CCN(Cc2cc3nc(-c4cccc5[nH]ncc45)nc(N4CCOCC4)c3s2)CC1 [Pictilisib] (partner 1 µM) records relative viability below 0.3.
OUT: 1

IN: Identify whether the compound COc1cc2nccc(Oc3ccc(NC(=O)Nc4cc(C)on4)c(Cl)c3)c2cc1OC [Tivozanib] + Cc1nc(NC(=O)N2CCC[C@H]2C(N)=O)sc1-c1ccnc(C(C)(C)C(F)(F)F)c1 [Alpelisib] (partner 2 µM) records relative viability below 0.3.
OUT: 0

IN: Identify whether the compound Nc1ccn([C@@H]2O[C@H](CO)[C@@H](O)[C@@H]2O)c(=O)n1 [Cytarabine] + CC(C)C[C@H](NC(=O)[C@H](Cc1ccccc1)NC(=O)c1cnccn1)B(O)O [Bortezomib] (partner 0.002 µM) records relative viability below 0.3.
OUT: 0

IN: Identify whether the compound Nc1ccn([C@@H]2O[C@H](CO)[C@@H](O)[C@@H]2O)c(=O)n1 [Cytarabine] + CC1(C)CCC(c2ccc(Cl)cc2)=C(CN2CCN(c3ccc(C(=O)NS(=O)(=O)c4ccc(N[C@H](CCN5CCOCC5)CSc5ccccc5)c(S(=O)(=O)C(F)(F)F)c4)cc3)CC2)C1 [Navitoclax] (partner 0.5 µM) records relative viability below 0.3.
OUT: 1

IN: Identify whether the compound COc1cc2nccc(Oc3ccc(NC(=O)Nc4cc(C)on4)c(Cl)c3)c2cc1OC [Tivozanib] + C[C@@H](Oc1cc(-c2cnn(C3CCNCC3)c2)cnc1N)c1c(Cl)ccc(F)c1Cl [Crizotinib] (partner 1 µM) records relative viability below 0.3.
OUT: 1

====

system: SK-LU-1; assay: relative viability (nuclei count vs DMSO), 5 days (fraction); higher = more cells survive; conditions: first compound 0.4 µM
Kindly state relative viability for each of the entries shown.
Reply with the value as a number alone.

The reported value for Cc1sc2c(c1C)C(c1ccc(Cl)cc1)=N[C@@H](CC(=O)OC(C)(C)C)c1nnc(C)n1-2 [JQ1] + CCNC(=O)c1noc(-c2cc(C(C)C)c(O)cc2O)c1-c1ccc(CN2CCOCC2)cc1 [Luminespib] (partner 0.01 µM) in terms of relative viability is 0.171

The reported value for Cc1sc2c(c1C)C(c1ccc(Cl)cc1)=N[C@@H](CC(=O)OC(C)(C)C)c1nnc(C)n1-2 [JQ1] + CC(=O)Nc1cccc(-n2c(=O)n(C3CC3)c(=O)c3c(Nc4ccc(I)cc4F)n(C)c(=O)c(C)c32)c1 [Trametinib] (partner 0.02 µM) in terms of relative viability is 0.434

The reported value for Cc1sc2c(c1C)C(c1ccc(Cl)cc1)=N[C@@H](CC(=O)OC(C)(C)C)c1nnc(C)n1-2 [JQ1] + Nc1ncn([C@H]2C[C@H](O)[C@@H](CO)O2)c(=O)n1 [Decitabine] (partner 2 µM) in terms of relative viability is 0.416

The reported value for Cc1sc2c(c1C)C(c1ccc(Cl)cc1)=N[C@@H](CC(=O)OC(C)(C)C)c1nnc(C)n1-2 [JQ1] + COc1cc2c(Oc3ccc(NC(=O)C4(C(=O)Nc5ccc(F)cc5)CC4)cc3F)ccnc2cc1OCCCN1CCOCC1 [Foretinib] (partner 0.25 µM) in terms of relative viability is 0.787

The reported value for Cc1sc2c(c1C)C(c1ccc(Cl)cc1)=N[C@@H](CC(=O)OC(C)(C)C)c1nnc(C)n1-2 [JQ1] + Cc1nc(Nc2ncc(C(=O)Nc3c(C)cccc3Cl)s2)cc(N2CCN(CCO)CC2)n1 [Dasatinib] (partner 0.075 µM) in terms of relative viability is 0.182

The reported value for Cc1sc2c(c1C)C(c1ccc(Cl)cc1)=N[C@@H](CC(=O)OC(C)(C)C)c1nnc(C)n1-2 [JQ1] + CC(C)C[C@H](NC(=O)[C@H](Cc1ccccc1)NC(=O)c1cnccn1)B(O)O [Bortezomib] (partner 0.002 µM) in terms of relative viability is 0.941

====

tested on: SW 1573; assay: relative viability (nuclei count vs DMSO), 5 days (fraction); higher = more cells survive; details: first compound 0.005 µM
Kindly state relative viability for each of the entries shown.
Reply with the value as a number alone.

The reported value for Nc1ccn([C@@H]2O[C@H](CO)[C@@H](O)[C@@H]2O)c(=O)n1 [Cytarabine] + Nc1nc2[nH]cc(CCc3ccc(C(=O)N[C@@H](CCC(=O)O)C(=O)O)cc3)c2c(=O)[nH]1 [Pemetrexed] (partner 0.2 µM) in terms of relative viability is 0.675

The reported value for COc1cc2nccc(Oc3ccc(NC(=O)Nc4cc(C)on4)c(Cl)c3)c2cc1OC [Tivozanib] + CS(=O)(=O)N1CCN(Cc2cc3nc(-c4cccc5[nH]ncc45)nc(N4CCOCC4)c3s2)CC1 [Pictilisib] (partner 1 µM) in terms of relative viability is 0.448

The reported value for Nc1ccn([C@@H]2O[C@H](CO)[C@@H](O)[C@@H]2O)c(=O)n1 [Cytarabine] + COc1cccc2cc(-c3nc([C@H]4CC[C@H](C(=O)O)CC4)n4ncnc(N)c34)[nH]c12 [OSI-027] (partner 0.5 µM) in terms of relative viability is 0.735

The reported value for COc1cc2nccc(Oc3ccc(NC(=O)Nc4cc(C)on4)c(Cl)c3)c2cc1OC [Tivozanib] + CCNC(=O)c1noc(-c2cc(C(C)C)c(O)cc2O)c1-c1ccc(CN2CCOCC2)cc1 [Luminespib] (partner 0.01 µM) in terms of relative viability is 0.644

The reported value for COc1cc2nccc(Oc3ccc(NC(=O)Nc4cc(C)on4)c(Cl)c3)c2cc1OC [Tivozanib] + COc1cccc2cc(-c3nc([C@H]4CC[C@H](C(=O)O)CC4)n4ncnc(N)c34)[nH]c12 [OSI-027] (partner 0.5 µM) in terms of relative viability is 0.575

====

test system: NCI-H2085; experiment: relative viability (nuclei count vs DMSO), 5 days (fraction); higher = more cells survive; conditions: first compound 4 µM
Kindly state relative viability for each of the entries shown.

The reported value for Cc1sc2c(c1C)C(c1ccc(Cl)cc1)=N[C@@H](CC(=O)OC(C)(C)C)c1nnc(C)n1-2 [JQ1] + CC(=O)c1c(C)c2cnc(Nc3ccc(N4CCNCC4)cn3)nc2n(C2CCCC2)c1=O [Palbociclib] (partner 0.5 µM) in terms of relative viability is 0.462

The reported value for Cc1sc2c(c1C)C(c1ccc(Cl)cc1)=N[C@@H](CC(=O)OC(C)(C)C)c1nnc(C)n1-2 [JQ1] + CC(=O)Nc1cccc(-n2c(=O)n(C3CC3)c(=O)c3c(Nc4ccc(I)cc4F)n(C)c(=O)c(C)c32)c1 [Trametinib] (partner 0.02 µM) in terms of relative viability is 0.239

The reported value for Cc1sc2c(c1C)C(c1ccc(Cl)cc1)=N[C@@H](CC(=O)OC(C)(C)C)c1nnc(C)n1-2 [JQ1] + CS(=O)(=O)N1CCN(Cc2cc3nc(-c4cccc5[nH]ncc45)nc(N4CCOCC4)c3s2)CC1 [Pictilisib] (partner 1 µM) in terms of relative viability is 0.385

The reported value for Cc1sc2c(c1C)C(c1ccc(Cl)cc1)=N[C@@H](CC(=O)OC(C)(C)C)c1nnc(C)n1-2 [JQ1] + COc1cccc2cc(-c3nc([C@H]4CC[C@H](C(=O)O)CC4)n4ncnc(N)c34)[nH]c12 [OSI-027] (partner 0.5 µM) in terms of relative viability is 0.323
